Origin of the recorded values: ChEMBL document CHEMBL1125034

- Procedure Text: Alkaline hydrolysis rate of the compound
- Format: ADME
So basically: is Log kOH- under 1? Then condition met. Not under? Then condition not met.

### Prompt Lab note: Log kOH- threshold 1. Does this compound come in strictly under it? CCc1ccc2c(=O)oc(NC(C)C)nc2c1
### Response condition met

### Prompt Strictly below 1: is that where Log kOH- of COc1cccc2nc(C(F)(F)F)oc(=O)c12 sits?
### Response condition not met

### Prompt A record lists O=c1oc(-c2ccccc2)nc2ccccc12 . Is its Log kOH- below 1?
### Response condition not met

### Prompt Log kOH- strictly < 1 for this compound? CCOC(=O)Nc1ccc2c(=O)oc(OCC)nc2c1
### Response condition not met

### Prompt Could you please tell me whether Log kOH- recorded for Nc1nc2ccccc2c(=O)o1 is less than 1?
### Response condition met

### Prompt I wonder whether CCSc1nc2ccccc2c(=O)o1 has Log kOH- below 1. Can you tell?
### Response condition not met

### Prompt Hello, is Log kOH- of the following compound strictly smaller than 1? Cc1cccc2nc(NC(C)C)oc(=O)c12
### Response condition met

### Prompt Lab note: Log kOH- threshold 1. Does this compound come in strictly under it? CCOC(=O)[C@H](C)Nc1nc2ccccc2c(=O)o1
### Response condition not met

### Prompt Please determine if CCCc1cc(N(C)C)cc2nc(NC(C)C)oc(=O)c12 is below 1 in terms of Log kOH-.
### Response condition met

### Prompt Hello, is Log kOH- of the following compound strictly smaller than 1? COC(=O)[C@H](CC(C)C)Nc1nc2ccccc2c(=O)o1
### Response condition not met

### Prompt Please determine if Cc1ccc2c(=O)oc(NC(C)C)nc2c1C is below 1 in terms of Log kOH-.
### Response condition met

### Prompt Is Log kOH- strictly under 1 for the entry CCOc1nc2cc(N(C)C)ccc2c(=O)o1 ?
### Response condition met

### Prompt Hello, is Log kOH- of the following compound strictly smaller than 1? CCc1cc(N)cc2nc(NC(C)C)oc(=O)c12
### Response condition met

---

Give measured Log koff for each item. Keep answers brief.
- Study System: Neutrophil elastase (Homo sapiens)
- Sequence (whole entry): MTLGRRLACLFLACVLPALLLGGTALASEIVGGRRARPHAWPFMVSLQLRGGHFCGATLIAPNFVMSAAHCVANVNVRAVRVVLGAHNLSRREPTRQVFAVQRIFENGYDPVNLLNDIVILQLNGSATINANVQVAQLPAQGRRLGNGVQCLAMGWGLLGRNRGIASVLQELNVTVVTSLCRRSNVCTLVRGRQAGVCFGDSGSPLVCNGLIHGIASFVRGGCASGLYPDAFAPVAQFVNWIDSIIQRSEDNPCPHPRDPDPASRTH
- Procedure Text: Component deacylation rate constant for interaction with human leukocyte elastase
# respond with the number and nothing more

Documented Log koff of CC(C)CN(CC(C)C)c1nc2ccccc2c(=O)o1 : -3.01

# Log koff of COC(=O)[C@H](Cc1ccc(O)cc1)Nc1nc2ccccc2c(=O)o1 = -3.07

// CCC(CC)Nc1nc2cccc(C)c2c(=O)o1 : Log koff value = -2.25

Value of measured Log koff for the entry Cc1cc(C)c2c(=O)oc(NC(C)C)nc2c1 : -4.82

The compound listed as COC(=O)[C@H](CC(C)C)Nc1nc2ccccc2c(=O)o1 shows Log koff equal to -3.41

Per the record, CCCCN(CCCC)c1nc2ccccc2c(=O)o1 has Log koff of -2.91

Log koff recorded for this compound, CCSc1nc2cccc(C)c2c(=O)o1 , is -2.85

Log koff measured on O=C(c1nc2ccccc2c(=O)o1)[C@@H]1CCCN1 = -3

Notebook: CCOc1nc2cc(N(C)C)ccc2c(=O)o1 , Log koff read as -4.85

Log koff recorded for this compound, COC(=O)C(CC(C)C)Nc1nc2ccccc2c(=O)o1 (stereo not drawn) , is -2.86

Measured Log koff, CSc1nc2cccc(C)c2c(=O)o1 : -3.45

Entry CCCc1cccc2nc(OCC)oc(=O)c12 — recorded Log koff = -4.15

The compound listed as CCCCNc1nc2cc(N)ccc2c(=O)o1 shows Log koff equal to -2.74
